Data origin, for the record: patent US4925861A

test: Acute toxicity, oral, mice; details: mouse, in vivo, suspension in 1% tragacanth, ddy male mice, observed for 7 days
REPORTED_PROPERTY: LD50 at 168 h

stdin: Recorded LD50 at 168 h for CCCc1csc(C=Cc2cccc(C(=O)NCC(CC)(CC)C(=O)O)c2)n1 [Compound 19] , please?
stdout: > 1000 mg/kg

stdin: Recorded LD50 at 168 h for CC(C)(CNC(=O)c1cccc(C=Cc2nc3ccccc3s2)c1)C(=O)O [Compound 7] , please?
stdout: > 700 mg/kg
